Sourced from patent USRE48558

Target: T1, extracellular domain of human CD79b (human, UniProt P40259 29-159)
T1 construct: also called huCD79becd; huCD79b-ecd
T1 sequence: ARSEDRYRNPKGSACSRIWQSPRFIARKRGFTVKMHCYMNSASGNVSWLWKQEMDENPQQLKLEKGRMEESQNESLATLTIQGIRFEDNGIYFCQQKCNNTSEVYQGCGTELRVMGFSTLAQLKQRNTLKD
Assay: phage selection, Fab on phage, plate-bound huCD79becd

Binder	binding result
huMA79b graft variant SEQ ID NO: 69 (Fab, name in Kabat numbering, V domains shown, Fab on phage; rest as huMA79b graft) VH: EVQLVESGGGLVQPGGSLRLSCAASGYTFTSYWLSWVRQAPGKGLEWVGEILPGGGDTNYNEIFKGRFTISADTSKNTAYLQMNSLRAEDTAVYYCTRRVPVYFDYWGQGTLVTVSS VL: DIQMTQSPSSLSASVGDRVTITCKASQSVDYDGDSFLNWYQQKPGKAPKLLIYAASNLESGVPSRFSGSGSGTDFTLTISSLQPEDFATYYCQQSNEDPLTFGQGTKVEIKR	binds
huMA79b graft variant SEQ ID NO: 81 (Fab, name in Kabat numbering, V domains shown, Fab on phage; rest as huMA79b graft) VH: EVQLVESGGGLVQPGGSLRLSCAASGYPFRGYWIEWVRQAPGKGLEWVGEILPGGGDTNYNEIFKGRFTISADTSKNTAYLQMNSLRAEDTAVYYCTRRVPVYFDYWGQGTLVTVSS VL: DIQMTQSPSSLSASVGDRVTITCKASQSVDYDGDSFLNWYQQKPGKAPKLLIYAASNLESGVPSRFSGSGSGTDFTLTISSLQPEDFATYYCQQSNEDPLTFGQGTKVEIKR	binds
